Can you tell me IC50 for the items I'm about to list?
target: NK3 (Homo sapiens); assay: Signal transduction (ST), intracellular Ca++ FLIPR, NK3; format: cell-based; details: antagonist, Ca++ transient peak, read-out: NK3 pIC50 (converted)

Check out these entries, answers already filled in.
{"MOLECULE": "O=C(c1ccoc1)N1CCC(N2CCN(CC3CCN(C(=O)c4cc(C(F)(F)F)cc(C(F)(F)F)c4)C(Cc4ccccc4)C3)CC2)C1 (stereo not drawn)", "IC50": "~7.94 µM"}
{"MOLECULE": "CC(C)(C)OC(=O)N1CCC(N2CCN(CC3CCN(C(=O)c4cc(C(F)(F)F)cc(C(F)(F)F)c4)C(Cc4ccccc4)C3)CC2)CC1 (stereo not drawn)", "IC50": "> 10 µM"}
{"MOLECULE": "COC1(CN2CCN(C3CCN(C(=O)c4snnc4C)C3)CC2)CCN(C(=O)c2cc(C(F)(F)F)cc(C(F)(F)F)c2)C(Cc2ccccc2)C1 (stereo not drawn)", "IC50": "10.2 µM"}
{"MOLECULE": "O=C(C1CC1)N1CCC(N2CCN(CC3CCN(C(=O)c4cc(C(F)(F)F)cc(C(F)(F)F)c4)C(Cc4ccccc4)C3)CC2)CC1 (stereo not drawn)", "IC50": "~7.76 µM"}
{"MOLECULE": "COC1(CN2CCN(C3CCN(C(=O)c4ccccc4)C3)CC2)CCN(C(=O)c2cc(C(F)(F)F)cc(C(F)(F)F)c2)C(Cc2ccccc2)C1 (stereo not drawn)", "IC50": "> 10 µM"}
{"MOLECULE": "O=C(C1CCN(C(=O)c2cc(C(F)(F)F)cc(C(F)(F)F)c2)C(Cc2ccccc2)C1)N1CCN(C2CCN(S(=O)(=O)c3cccs3)C2)CC1 (stereo not drawn)", "IC50": "2.51 µM"}
{"MOLECULE": "Cc1nnsc1C(=O)N1CCC(N2CCN(CC3(O)CCN(C(=O)c4cc(C(F)(F)F)cc(C(F)(F)F)c4)C(Cc4ccccc4)C3)CC2)C1 (stereo not drawn)", "IC50": "4.27 µM"}
{"MOLECULE": "O=C(C1CC1)N1CCC(N2CCN(C(=O)[C@H]3CCN(C(=O)c4cc(C(F)(F)F)cc(C(F)(F)F)c4)[C@H](Cc4ccccc4)C3)CC2)C1 (stereo partly drawn)", "IC50": "6.61 µM"}
{"MOLECULE": "O=C(c1cc(C(F)(F)F)cc(C(F)(F)F)c1)N1CCC(O)(CN2CCN(C3CCNC3)CC2)CC1Cc1ccccc1 (stereo not drawn)", "IC50": "> 10 µM"}
{"MOLECULE": "O=C([C@H]1CCN(C(=O)c2cc(C(F)(F)F)cc(C(F)(F)F)c2)[C@H](Cc2ccccc2)C1)N1CCN(C2CCN(Cc3ccccc3)C2)CC1 (stereo partly drawn)", "IC50": "> 10 µM"}

For each of the molecules below, note its IC50.
1. O=C(c1cc(C(F)(F)F)cc(C(F)(F)F)c1)N1CCC(CN2CCN(C3CCN(c4ncccn4)CC3)CC2)CC1Cc1ccccc1 (stereo not drawn)
2. O=C(CC1CCN(C(=O)c2cc(C(F)(F)F)cc(C(F)(F)F)c2)[C@@H](Cc2ccccc2)C1)N1CCN(C2CCN(C(=O)C3CCOC3)C2)CC1 (mixture of isomers)

RESULT:
["5.25 µM", "> 10 µM"]

###

target: NK1 (Homo sapiens); assay: Signal transduction (ST), intracellular Ca++ FLIPR, NK1; type: cell-based; conditions: antagonist, Ca++ transient peak, read-out: NK1 pIC50 (converted)
Sequence (P25103 whole entry): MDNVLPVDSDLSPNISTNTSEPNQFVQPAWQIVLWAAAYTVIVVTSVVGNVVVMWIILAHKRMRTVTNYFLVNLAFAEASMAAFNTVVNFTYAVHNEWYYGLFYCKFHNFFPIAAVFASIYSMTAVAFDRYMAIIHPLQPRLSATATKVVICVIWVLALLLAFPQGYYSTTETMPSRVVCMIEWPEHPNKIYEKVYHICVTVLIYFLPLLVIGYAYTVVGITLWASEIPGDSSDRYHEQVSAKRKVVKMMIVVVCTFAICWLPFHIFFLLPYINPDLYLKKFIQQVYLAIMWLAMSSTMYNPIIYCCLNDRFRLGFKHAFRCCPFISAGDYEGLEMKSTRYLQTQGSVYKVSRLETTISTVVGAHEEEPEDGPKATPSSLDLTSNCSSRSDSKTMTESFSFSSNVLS
ENDPOINT_NAME: log10 of IC50 (log10 of the value in nM)
Note the log scale: values are log10 of IC50 expressed in nM.

Check out these entries, answers already filled in.
{"MOLECULE": "O=C(c1cc(C(F)(F)F)cc(C(F)(F)F)c1)N1CCC(CN2CCN(C3CCN(c4cnccn4)CC3)CC2)CC1Cc1ccccc1 (stereo not drawn)", "log10 of IC50": 2.46}
{"MOLECULE": "O=C(c1cccc(O)c1)N1CCC(N2CCN(CC3CCN(C(=O)c4cc(C(F)(F)F)cc(C(F)(F)F)c4)C(Cc4ccccc4)C3)CC2)CC1 (stereo not drawn)", "log10 of IC50": 1.94}
{"MOLECULE": "O=C(c1cccnc1)N1CCC(N2CCN(C[C@H]3CCN(C(=O)c4cc(C(F)(F)F)cc(C(F)(F)F)c4)[C@H](Cc4ccccc4)C3)CC2)C1 (stereo partly drawn)", "log10 of IC50": 2.02}

For each of the molecules below, note its log10 of IC50.
1. COC1(CN2CCN(C3CCN(C(=O)c4ccoc4)C3)CC2)CCN(C(=O)c2cc(C(F)(F)F)cc(C(F)(F)F)c2)C(Cc2ccccc2)C1 (stereo not drawn)
2. O=C(c1ccsc1)N1CCC(N2CCN(C[C@H]3CCN(C(=O)c4cc(C(F)(F)F)cc(C(F)(F)F)c4)[C@H](Cc4ccccc4)C3)CC2)C1 (stereo partly drawn)
3. COC1(CN2CCN(C3CCNC3)CC2)CCN(C(=O)c2cc(C(F)(F)F)cc(C(F)(F)F)c2)C(Cc2ccccc2)C1 (stereo not drawn)
4. O=C(c1ccccc1)N1CCC(N2CCN(C(=O)[C@H]3CCN(C(=O)c4cc(C(F)(F)F)cc(C(F)(F)F)c4)[C@H](Cc4ccccc4)C3)CC2)CC1
5. CC(C)(C)OC(=O)N1CCC(N2CCN(C(=O)CC3CCN(C(=O)c4cc(C(F)(F)F)cc(C(F)(F)F)c4)[C@@H](Cc4ccccc4)C3)CC2)C1 (mixture of isomers)
6. O=C([C@H]1CCN(C(=O)c2cc(C(F)(F)F)cc(C(F)(F)F)c2)[C@H](Cc2ccccc2)C1)N1CCN(C2CCNC2)CC1 (stereo partly drawn)

RESULT:
1: 1.81; 2: 2.00; 3: 2.30; 4: 1.03; 5: 2.24; 6: 2.33

For each of the molecules below, note its log10 of IC50.
1. O=C(c1ccccc1)N1CCC(N2CCN(C[C@H]3CCN(C(=O)c4cc(C(F)(F)F)cc(C(F)(F)F)c4)[C@H](Cc4ccccc4)C3)CC2)C1 (stereo partly drawn)
2. Cn1cccc1C(=O)N1CCC(N2CCN(C[C@H]3CCN(C(=O)c4cc(C(F)(F)F)cc(C(F)(F)F)c4)[C@H](Cc4ccccc4)C3)CC2)CC1
3. O=C(c1cc(C(F)(F)F)cc(C(F)(F)F)c1)N1CCC(CN2CCN(C3CCNC3)CC2)CC1Cc1ccccc1 (stereo not drawn)

RESULT:
1: 2.07; 2: 2.32; 3: 2.26

###

target: NK1 (Homo sapiens); assay: Signal transduction (ST), intracellular Ca++ FLIPR, NK1; assay type: cell-based; conditions: antagonist, Ca++ transient peak, read-out: NK1 pIC50 (converted)
Can you tell me IC50 for the items I'm about to list?
Numbers only, in µM.

Check out these entries, answers already filled in.
{"COMPOUND": "O=C(C1CCOC1)N1CCC(N2CCN(C(=O)[C@H]3CCN(C(=O)c4cc(C(F)(F)F)cc(C(F)(F)F)c4)[C@H](Cc4ccccc4)C3)CC2)CC1 (stereo partly drawn) [Compound 92]", "UNITS_LABEL": "µM", "REPORTED_VALUE": 0.024}
{"COMPOUND": "Cc1nnsc1C(=O)N1CCC(N2CCN(C(=O)[C@H]3CCN(C(=O)c4cc(C(F)(F)F)cc(C(F)(F)F)c4)[C@H](Cc4ccccc4)C3)CC2)CC1 [Compound 58]", "UNITS_LABEL": "µM", "REPORTED_VALUE": 0.00871}

QUERY: Look up IC50 for this compound: O=C(C1CCN(C(=O)c2cc(C(F)(F)F)cc(C(F)(F)F)c2)C(Cc2ccccc2)C1)N1CCN(C2CCN(Cc3ccccc3)CC2)CC1 (stereo not drawn) [Compound 3]
RESULT: 0.347

###

molecular target: NK3 (Homo sapiens, UniProt P29371); test: Signal transduction (ST), intracellular Ca++ FLIPR, NK3; format: cell-based; conditions: antagonist, Ca++ transient peak, read-out: NK3 pIC50 (converted)
Sequence (P29371 whole entry): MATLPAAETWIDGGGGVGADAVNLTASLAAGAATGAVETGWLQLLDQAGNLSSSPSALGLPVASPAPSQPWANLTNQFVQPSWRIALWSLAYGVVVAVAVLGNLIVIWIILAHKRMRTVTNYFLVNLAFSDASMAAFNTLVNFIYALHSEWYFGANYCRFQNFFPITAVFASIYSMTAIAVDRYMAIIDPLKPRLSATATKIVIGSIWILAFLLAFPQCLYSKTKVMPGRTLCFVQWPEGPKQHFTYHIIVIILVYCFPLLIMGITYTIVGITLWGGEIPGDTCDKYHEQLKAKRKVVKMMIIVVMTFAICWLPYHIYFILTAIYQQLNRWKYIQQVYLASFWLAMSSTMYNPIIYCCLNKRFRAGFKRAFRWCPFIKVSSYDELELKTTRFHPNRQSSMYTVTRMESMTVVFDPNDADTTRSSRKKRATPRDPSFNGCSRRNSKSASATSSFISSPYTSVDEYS
ENDPOINT_NAME: IC50

{"COMPOUND": "O=C([C@H]1CCN(C(=O)c2cc(C(F)(F)F)cc(C(F)(F)F)c2)[C@H](Cc2ccccc2)C1)N1CCN(C2CCNC2)CC1 (some centres unmarked)", "IC50": "6.76 µM"}
{"COMPOUND": "Cn1c(Cl)cnc1CN1CCC(N2CCN(CC3CCN(C(=O)c4cc(C(F)(F)F)cc(C(F)(F)F)c4)C(Cc4ccccc4)C3)CC2)CC1 (centres unmarked)", "IC50": "> 10 µM"}
{"COMPOUND": "O=C(c1cccnc1)N1CCC(N2CCN(CC3(O)CCN(C(=O)c4cc(C(F)(F)F)cc(C(F)(F)F)c4)C(Cc4ccccc4)C3)CC2)C1 (centres unmarked)", "IC50": "> 10 µM"}
{"COMPOUND": "O=C(C1CCOC1)N1CCC(N2CCN(C(=O)[C@H]3CCN(C(=O)c4cc(C(F)(F)F)cc(C(F)(F)F)c4)[C@H](Cc4ccccc4)C3)CC2)CC1 (some centres unmarked)", "IC50": "0.871 µM"}
{"COMPOUND": "O=C(c1ccoc1)N1CCC(N2CCN(C(=O)[C@H]3CCN(C(=O)c4cc(C(F)(F)F)cc(C(F)(F)F)c4)[C@H](Cc4ccccc4)C3)CC2)C1 (some centres unmarked)", "IC50": "> 10 µM"}
{"COMPOUND": "O=C(c1ccsc1)N1CCC(N2CCN(C[C@H]3CCN(C(=O)c4cc(C(F)(F)F)cc(C(F)(F)F)c4)[C@H](Cc4ccccc4)C3)CC2)C1 (some centres unmarked)", "IC50": "> 10 µM"}
{"COMPOUND": "COc1cccc(CC(=O)N2CCC(N3CCN(CC4CCN(C(=O)c5cc(C(F)(F)F)cc(C(F)(F)F)c5)C(Cc5ccccc5)C4)CC3)CC2)c1 (centres unmarked)", "IC50": "~9.77 µM"}
{"COMPOUND": "O=C(C1CC1)N1CCC(N2CCN(CC3(O)CCN(C(=O)c4cc(C(F)(F)F)cc(C(F)(F)F)c4)C(Cc4ccccc4)C3)CC2)C1 (centres unmarked)", "IC50": "2.88 µM"}
{"COMPOUND": "O=C(C1CCN(C(=O)c2cc(C(F)(F)F)cc(C(F)(F)F)c2)C(Cc2ccccc2)C1)N1CCN(C2CCN(Cc3ccccc3)CC2)CC1 (centres unmarked)", "IC50": "> 10 µM"}
{"COMPOUND": "CC(C)(C)OC(=O)N1CCC(N2CCN(C(=O)CC3CCN(C(=O)c4cc(C(F)(F)F)cc(C(F)(F)F)c4)[C@@H](Cc4ccccc4)C3)CC2)C1 (mixture of isomers)", "IC50": "> 10 µM"}

For each of the compounds below, note its IC50.
1. Cc1nnsc1C(=O)N1CCC(N2CCN(C(=O)[C@H]3CCN(C(=O)c4cc(C(F)(F)F)cc(C(F)(F)F)c4)[C@H](Cc4ccccc4)C3)CC2)CC1
2. O=C(c1ccccc1Cl)N1CCC(N2CCN(C(=O)[C@H]3CCN(C(=O)c4cc(C(F)(F)F)cc(C(F)(F)F)c4)[C@H](Cc4ccccc4)C3)CC2)C1 (some centres unmarked)
3. O=C(c1ccccc1)N1CCC(N2CCN(C[C@H]3CCN(C(=O)c4cc(C(F)(F)F)cc(C(F)(F)F)c4)[C@H](Cc4ccccc4)C3)CC2)C1 (some centres unmarked)
4. Cc1ccc(N2CCC(N3CCN(CC4CCN(C(=O)c5cc(C(F)(F)F)cc(C(F)(F)F)c5)C(Cc5ccccc5)C4)CC3)CC2)nn1 (centres unmarked)

RESULT:
["> 10 µM", "> 10 µM", "> 10 µM", "> 10 µM"]
